src = ChEMBL document CHEMBL1157729

Test: Antineuroinflammatory activity in LPS-stimulated rat neonatal microglia assessed as inhibition of PMA-induced TXB2 production preincubated 15 mins prior to PMA challenge measured after 70 mins
Type: functional, cell-based
value.type: log10(IC50) (log10 of the value in µM)
Scale: decimal log of IC50, IC50 in µM.

{"columns": ["compound", "log10(IC50)"],
 "data": [
  ["CCCCn1c2ccccc2c2ccnc(C3=C[C@@]4(O)CC/C=C\\CCCCN5CC[C@@H]3[C@]3(C[C@@H]6/C=C\\CCCCN6[C@H]34)C5)c21", -0.40],
  ["O=CC1=C[C@@]2(O)CC/C=C\\CCCCN3CC[C@@H]1[C@]1(C[C@@H]4/C=C\\CCCCN4[C@H]12)C3", -0.48],
  ["O[C@]12C=C(C3NCCc4c3[nH]c3ccccc43)[C@@H]3CCN(CCCC/C=C\\CC1)C[C@@]31C[C@@H]3/C=C\\CCCCN3[C@H]12 (stereo partly specified)", 0.32],
  ["CN1CCc2c([nH]c3ccccc23)C1C1=C[C@@]2(O)CC/C=C\\CCCCN3CC[C@@H]1[C@]1(C[C@@H]4/C=C\\CCCCN4[C@H]12)C3 (stereo partly specified)", 1.09],
  ["COc1ccc2[nH]c3c(c2c1)CCNC3C1=C[C@@]2(O)CC/C=C\\CCCCN3CC[C@@H]1[C@]1(C[C@@H]4/C=C\\CCCCN4[C@H]12)C3 (stereo partly specified)", 0.22],
  ["COC(=O)c1cc2c([nH]c3ccccc32)c(C2=C[C@@]3(O)CC/C=C\\CCCCN4CC[C@@H]2[C@]2(C[C@@H]5/C=C\\CCCCN5[C@H]23)C4)n1", -0.96]
]}

From here, focus on the item given below.
Exercise: What log10(IC50) value was documented for this compound, CC(C)(C)Cn1c2ccccc2c2ccnc(C3=C[C@@]4(O)CC/C=C\CCCCN5CC[C@@H]3[C@]3(C[C@@H]6/C=C\CCCCN6[C@H]34)C5)c21 ?
Solution: -1.15
